# ASSAY METHOD TEXT: Phase 1 single ascending dose plasma pharmacokinetics in healthy volunteers
# Format: in vivo, human
# COND: human, po, 1200 mg, Group 3, 1200 mg single oral dose, read-out: Mean Cmax
MEASURED QUANTITY: Cmax (ng/mL)
Record the value in ng/mL, omitting the unit from your answer.

Req: Could you share which Cmax value was measured for "CC(=O)c1nn(CC(=O)N2C[C@H](F)C[C@H]2C(=O)Nc2cccc(Br)n2)c2ccc(-c3cnc(C)nc3)cc12" ?
Resp: 3070

###

# ASSAY METHOD TEXT: Ocular tissue and plasma pharmacokinetics, 15 mg/kg single and BID oral, Dutch Belted rabbits (Example 3/5)
# Format: in vivo
# COND: Dutch Belted, rabbit, choroid-RPE, po, 15 mg/kg, DB rabbit, 15 mg/kg BID oral, Day 15, 240 h; read-out: Mean Choroid-RPE concentration
MEASURED QUANTITY: concentration at 240 h (ng/g)
Please reply with the bare figure in ng/g and do not write the unit itself.

Req: Data request, read-out concentration at 240 h, for "CC(=O)c1nn(CC(=O)N2C[C@H](F)C[C@H]2C(=O)Nc2cccc(Br)n2)c2ccc(-c3cnc(C)nc3)cc12"
Resp: 340

Where do the numbers come from? From patent US20230126447A1.
